Molecular target: T1, Mammalian expressed extracellular human RON protein (Gly25 to Thr957) with His-tag (human, UniProt Q04912 25-957)
T1 construct: Expressed in ExpiCHO cells, purified on nickel; Position of the His-tag is told inconsistently; Written as one chain; also called RON ECD; RON ECD antigen; not shown: His-tag
T1 sequence: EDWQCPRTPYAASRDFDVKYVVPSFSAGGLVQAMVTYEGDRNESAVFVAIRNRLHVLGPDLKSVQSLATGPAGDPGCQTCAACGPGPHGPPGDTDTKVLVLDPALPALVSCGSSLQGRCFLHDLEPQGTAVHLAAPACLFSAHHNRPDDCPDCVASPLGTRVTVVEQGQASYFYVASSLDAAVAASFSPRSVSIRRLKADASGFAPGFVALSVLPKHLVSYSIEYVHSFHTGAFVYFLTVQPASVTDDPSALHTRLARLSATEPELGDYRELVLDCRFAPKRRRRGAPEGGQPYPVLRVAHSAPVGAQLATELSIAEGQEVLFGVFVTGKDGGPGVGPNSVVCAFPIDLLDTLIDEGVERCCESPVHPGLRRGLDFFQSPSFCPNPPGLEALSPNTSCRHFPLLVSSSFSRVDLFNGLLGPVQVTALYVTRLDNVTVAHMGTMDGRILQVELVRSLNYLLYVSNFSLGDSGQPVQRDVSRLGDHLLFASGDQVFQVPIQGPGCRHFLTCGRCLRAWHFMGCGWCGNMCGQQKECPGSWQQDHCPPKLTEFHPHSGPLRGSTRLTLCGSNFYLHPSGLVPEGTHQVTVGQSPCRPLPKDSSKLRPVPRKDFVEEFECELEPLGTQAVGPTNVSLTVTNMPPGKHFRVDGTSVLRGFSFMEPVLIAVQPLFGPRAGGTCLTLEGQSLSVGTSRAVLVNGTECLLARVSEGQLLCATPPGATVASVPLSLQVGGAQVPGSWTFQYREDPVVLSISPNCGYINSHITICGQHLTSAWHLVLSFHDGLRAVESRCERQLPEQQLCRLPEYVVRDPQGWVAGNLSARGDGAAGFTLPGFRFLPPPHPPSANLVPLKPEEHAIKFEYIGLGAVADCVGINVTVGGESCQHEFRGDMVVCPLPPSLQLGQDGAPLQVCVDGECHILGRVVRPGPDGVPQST
Assay: KinExA, apparent Kd, column 'Kd by Kinexa (nM)' [continued]
Measured property: Kd (nM)
Dear colleague, please return just the value in nM, with no unit written.

Guide cases for Kd, answers given:
INSERT INTO results (binder, value_reported) VALUES
  ('3F6 (antibody, V domains shown, Mouse monoclonal antibody from a hybridoma; kappa light chain; also called anti-RON antibody 3F6) VH: EVKLEESGPGLVKPSQSLSLTCSVTGYSITSGYYWNWIRQFPGNKLEWMGFMSYDGSNNYNPSLKNRISITRDTSKNQFFLKLNSVTSEDTATYYCSRALAYYGNFDYWGQGTTLTVSS VL: DIVLTQTPSSLSASLGDRVTISCSASQDISNYLNWYQQKPDGIVKLLIYYTSSLHSGVPSRFSGSGSGTDFSLTISNLEPEDIATYYCQQYNKLPWTFGGGTKLEIK', 13.4),
  ('9F2 (antibody, V domains shown, Mouse monoclonal antibody from a hybridoma; kappa light chain; also called Antibody 9F2; anti-RON antibody 9F2) VH: QVKLQQSGPGLVAPSQSLSITCTVSGFSLTSYGVHWVRQPPGKGLEWLGVIWAGGTTNYNSALMSRLSISKDNSKSQVFLKMNSLQTDDTAMYYCASYDYDGYFDVWGAGTTVTVSS VL: DIVLTQTTAIMSASPGEKVTMTCSASSSVSYIHWYQQKSSTSPKLWIYDTSKLASGVPGRFSGSGSGNSYSLTISSMEAEDVATYYCFQGNKYPLTFGAGTKLELK', 2.7),
  ('7H11 (antibody, V domains shown, Mouse monoclonal antibody from a hybridoma; kappa light chain; also called Antibody 7H11; anti-RON antibody 7H11) VH: EVKLEQSGPELVKPGASVKISCKASGYTFTDYNMHWVRQPPGQSLEWIGFIYPYNGNSGYNPNFKTKATLTMDISSSTAYMEVRNLTSEDSATYFCASLYYLGYFDVWGAGTTVTVSS VL: DIVLTQSPVSLAVSLGQRATISCRASKSVSTSAYNFMHWYQQKPGQPPKLLIYLASNLESGVPARLSGSGSGTDFTLNIHPVEEEDAATYYCQHSRELPYTFGGGTKLEIKR', 0.23);

Attention now shifts to the item below.
## Task Answer with reported Kd of 3G4 (antibody, V domains shown, Mouse monoclonal antibody from a hybridoma (supernatant or purified); kappa light chain; also called Antibody 3G4; anti-RON antibody 3G4) VH: EVQLQESGPELVKPGTSVRISCKASGYTFTSYYMHWVKQRPGQGLEWIGYIYPGNVNTKYNEKFKGKATLTADKSSSTAYMQLSSLTSEDSAVYFCARLGYYRYGGAMDYWGQGTAVTVSS VL: DIVLTQTPAILSVSPGERVSFSCRASQSIGTSIHWYQQRTNGSPRLLIKYASESISGIPSRFSGSGSGTDFTLRINSVESEDLADYYCQQSDSWPTTFGGGTKLEIKR
## Result 0.3
